target: Collagenase from Clostridium histolyticum; assay: Collagenase inhibition; assay type: biochemical; details: mean ± SD
Listed below: Collagenase IC50 values for each entry.
Numeric only. Scale: mg/L

Please review the entries below; each comes with its answer.
{"compound": "C[C@@H]1O[C@@H](OC[C@H]2O[C@@H](Oc3c(-c4ccc(O)c(O)c4)oc4cc(O)cc(O)c4c3=O)[C@H](O)[C@@H](O)[C@@H]2O)[C@H](O)[C@H](O)[C@H]1O [Rutin]", "observed": 63.46}
{"compound": "O.Oc1cc(O)c2c(c1)O[C@H](c1ccc(O)c(O)c1)[C@@H](O)C2 [Catechin]", "observed": 29.33}
{"compound": "Oc1cc(O)c2c(c1)O[C@H](c1ccc(O)c(O)c1)[C@H](O)C2 [Epicatechin]", "observed": 65.96}

Proceeding to the next compound to report its Collagenase IC50.
Query: I am curious: what Collagenase IC50 value has been reported for O=C(O)[C@]1(O)C[C@@H](O)[C@@H](O)[C@H](O)C1 [Quinic acid] ?
Reply: 52.78

###

target: Porcine pancreatic elastase (Sus scrofa, UniProt P00772); assay: Elastase inhibition; assay type: biochemical
Sequence (P00772 27-266): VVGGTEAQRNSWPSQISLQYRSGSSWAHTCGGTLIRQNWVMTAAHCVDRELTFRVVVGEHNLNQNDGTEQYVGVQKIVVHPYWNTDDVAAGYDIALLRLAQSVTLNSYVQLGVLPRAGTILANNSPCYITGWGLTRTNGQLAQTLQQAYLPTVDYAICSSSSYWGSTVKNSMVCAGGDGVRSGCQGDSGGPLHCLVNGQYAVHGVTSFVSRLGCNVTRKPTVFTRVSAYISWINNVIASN
metric name: pIC50
The read-out pIC50 is expressed as -log10 of concentration in moles per litre.

Query: I am curious: what pIC50 value has been reported for O=c1cc(CO)occ1O [Kojic acid, reference compound] ?
Reply: 3.82

Data origin: paper PMC8979739
